Molecular target: Rar1 (Arabidopsis thaliana)
Sequence (Q9SE33 1-226): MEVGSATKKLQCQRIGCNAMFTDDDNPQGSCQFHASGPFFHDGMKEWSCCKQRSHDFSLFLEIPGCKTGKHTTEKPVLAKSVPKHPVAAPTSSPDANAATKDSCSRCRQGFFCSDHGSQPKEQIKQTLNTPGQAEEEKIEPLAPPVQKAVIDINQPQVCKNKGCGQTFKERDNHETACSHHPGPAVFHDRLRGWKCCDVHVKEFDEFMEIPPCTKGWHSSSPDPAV
Experiment: near-UV CD titration, non-linear fit at […] nm
Details: 4 °C; 1:1 site; authors call it weak non-specific binding; apparent Kd
OBSERVATION TYPE: pKd
FYI, pKd means -log10 of a concentration in mol per litre.

get_value(item= Nc1ncnc2c1ncn2[C@@H]1O[C@H](COP(=O)(O)OP(=O)(O)O)[C@@H](O)[C@H]1O [ADP] , readout=pKd) returns 2.70

Reference source: paper PMC5776081
